B1: SLC35F2 (parent)
chain: SFMPLVIKVTSATSVNLGILTADL

- Variants of: B1
- assay info: protein stability index of a GFP-peptide fusion (GPS, HEK-293T) (PSI 1-6); higher = more stable;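 also: lentivirally expressed fusions sorted by FACS into six bins by GFP to DsRed ratio, PSI derived from sequencing read proportions per bin multiplied by bin number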
- condition parameters: c terminus: a fixed tail appended
recorded endpoint: protein stability index
Form field (numeric): enter value without unit.

| mutation list | protein stability index |
| --- | --- |
| M3N | 3.15 |
| S11L | 1.96 |
| P4F | 1.91 |
| I7V | 3.05 |
| V6N | 2.29 |
| M3V | 2.06 |
| T10Q | 3.38 |
| T10K | 2.12 |

query: Which measured protein stability index value corresponds to `T21A` ?
result: 2.49

query: What does the data say about its protein stability index? Entry: `V15N`
result: 2.58

query: Look up protein stability index for this variant: `V9W`
result: 2.28

query: Quick check: protein stability index of `K8T` ?
result: 3

query: # get_value(readout='protein stability index', item= `G18E` )
result: 2.91
